B1: MNAT1 (parent)
chain: LAPIHKLEEALYEYQPLQIETYGP

Variants of: B1
Experiment: protein stability index of a GFP-peptide fusion (GPS, HEK-293T) (PSI 1-6); higher = more stable;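 also: lentivirally expressed fusions sorted by FACS into six bins by GFP to DsRed ratio, PSI derived from sequencing read proportions per bin multiplied by bin number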
Settings: c terminus: a fixed tail appended
Reported protein stability index values for the following variants.
Keep it simple and answer with nothing but the number.

| Variant Id | protein stability index |
| --- | --- |
| H5F | 2.03 |
| T21S | 2.23 |
| Y22P | 2.88 |

Quick check: protein stability index of L11M ?
2.34

Please give the result for E13M too.
2.49

Please give the result for E8S too.
1.75

Please give the result for E9C too.
2.68

Please give the result for L1A too.
2.28

Where do the numbers come from? From the supplement of paper PMC10567573.
